System name: Hexose transporter 1 (Plasmodium falciparum)
Protocol description: ST_JUDE_LEISH: Cytotoxicity at 2uM final concentration against transgenic Leishmania Mexicana promastigotes LmPfHT that are glucose transport deficient and complemented with the Plasmodium falciparum hexose transporter. Activity is measured by DNA content using SYBR green in vitro
Assay type: functional
Each entry below carries its recorded inhibition.
Numbers only; they are read as %.

Below, each entry is followed by its recorded inhibition result.
{"Compound": "Cn1cccc1C(=O)C(=O)Nc1cccc(-c2ccc(-c3nc4cc(C(F)(F)F)ccc4[nH]3)cc2)c1", "System name": "Hexose transporter 1 (Plasmodium falciparum)", "inhibition, %": 2.42}
{"Compound": "CCCCCCCC1CCN(C[C@H](O)c2ccnc3ccc(OC)cc23)CC1", "System name": "Hexose transporter 1 (Plasmodium falciparum)", "inhibition, %": 0.96}
{"Compound": "N=C1NC(=N)N(OCCCCCCON2C(=N)NC(=N)NC2C=Cc2ccccc2)C(C=Cc2ccccc2)N1 (centres undefined)", "System name": "Hexose transporter 1 (Plasmodium falciparum)", "inhibition, %": 2.16}

Query (compound): `NC(=O)C1CCN(Cc2cccc(-c3cccc(-c4nc5cc(C(F)(F)F)ccc5[nH]4)c3)c2)CC1` ; field requested: inhibition
11.4

Query (compound): `Oc1ccccc1CNCC12CC3CC(CC(C3)C1)C2` ; field requested: inhibition
2.08

Query (compound): `O=C(NCCNc1ccnc2cc(Cl)ccc12)c1ccccc1F` ; field requested: inhibition
1.06

Query (compound): `Cc1cc(NCCC(=O)Nc2ccccc2)nc(NCCc2cccnc2)n1` ; field requested: inhibition
2.33

Query (compound): `Cc1cc(N[C@@H](CC(C)C)C(=O)NC2CCCC2)nc(NCC2CCCCC2)n1` ; field requested: inhibition
3.89

----------
Each entry below carries its recorded inhibition.
System name: Glucose transporter (Leishmania mexicana)
Protocol description: ST_JUDE_LEISH: Cytotoxicity at 2uM final concentration against transgenic Leishmania Mexicana promastigotes LmGT2 that are glucose transport deficient and complemented with the L. Mexicana glucose transporter 2. Activity is measured by DNA content using SYBR green in vitro
Format: functional
Numbers only; they are read as %.

Below, each entry is followed by its recorded inhibition result.
{"Compound smiles": "CC(C)c1ccc(NC(=O)c2ccc(CN3CCCN(Cc4cccc(O)c4)CC3)cc2)cc1", "Reported metric": "inhibition", "Reading": 5.15}
{"Compound smiles": "ON=C1CCc2cc(-c3nc(-c4ccc(OCCN5CCCCC5)cc4)[nH]c3-c3ccncc3)ccc21", "Reported metric": "inhibition", "Reading": -1.7}
{"Compound smiles": "COc1ccccc1CCNc1nc(C)cc(N[C@@H](Cc2ccccc2)C(=O)NCCOc2ccccc2)n1", "Reported metric": "inhibition", "Reading": -2.09}
{"Compound smiles": "CCC(=O)Oc1ccc(NC(=O)c2cccc(OC)c2)cc1", "Reported metric": "inhibition", "Reading": 1.69}
{"Compound smiles": "O=C(NCCNc1ccnc(Nc2ccc(F)cc2)n1)Nc1ccc2c(c1)OCO2", "Reported metric": "inhibition", "Reading": 0.6}
{"Compound smiles": "CCCc1cc(C(=O)N[C@@H](Cc2ccccc2)[C@H](O)CNC(C)C)c(F)c(N2CCCC2=O)c1", "Reported metric": "inhibition", "Reading": -0.74}
{"Compound smiles": "O=C(NCc1ccc(F)cc1)c1cnc(N2CCN(c3ccncc3)CC2)c(Cl)c1", "Reported metric": "inhibition", "Reading": 5.45}
{"Compound smiles": "Cn1cnnc1Sc1ccc(CN2CCOc3ccc(C4=CCCCC4)cc3C2)o1", "Reported metric": "inhibition", "Reading": 1}

Continue with the next molecule.
Query (molecule): `CC(C)(C)c1ccc2oc(=O)n(C3CCN(C(=O)c4ccc([N+](=O)[O-])o4)CC3)c2c1` ; field requested: inhibition
0.29
